Value source: paper PMC9636267

# experimental.target: T1, HCoV-229E S ectodomain (17–1115 aa), 229E S trimer (human coronavirus 229E, UniProt P15423 17-1115)
# T1 chain: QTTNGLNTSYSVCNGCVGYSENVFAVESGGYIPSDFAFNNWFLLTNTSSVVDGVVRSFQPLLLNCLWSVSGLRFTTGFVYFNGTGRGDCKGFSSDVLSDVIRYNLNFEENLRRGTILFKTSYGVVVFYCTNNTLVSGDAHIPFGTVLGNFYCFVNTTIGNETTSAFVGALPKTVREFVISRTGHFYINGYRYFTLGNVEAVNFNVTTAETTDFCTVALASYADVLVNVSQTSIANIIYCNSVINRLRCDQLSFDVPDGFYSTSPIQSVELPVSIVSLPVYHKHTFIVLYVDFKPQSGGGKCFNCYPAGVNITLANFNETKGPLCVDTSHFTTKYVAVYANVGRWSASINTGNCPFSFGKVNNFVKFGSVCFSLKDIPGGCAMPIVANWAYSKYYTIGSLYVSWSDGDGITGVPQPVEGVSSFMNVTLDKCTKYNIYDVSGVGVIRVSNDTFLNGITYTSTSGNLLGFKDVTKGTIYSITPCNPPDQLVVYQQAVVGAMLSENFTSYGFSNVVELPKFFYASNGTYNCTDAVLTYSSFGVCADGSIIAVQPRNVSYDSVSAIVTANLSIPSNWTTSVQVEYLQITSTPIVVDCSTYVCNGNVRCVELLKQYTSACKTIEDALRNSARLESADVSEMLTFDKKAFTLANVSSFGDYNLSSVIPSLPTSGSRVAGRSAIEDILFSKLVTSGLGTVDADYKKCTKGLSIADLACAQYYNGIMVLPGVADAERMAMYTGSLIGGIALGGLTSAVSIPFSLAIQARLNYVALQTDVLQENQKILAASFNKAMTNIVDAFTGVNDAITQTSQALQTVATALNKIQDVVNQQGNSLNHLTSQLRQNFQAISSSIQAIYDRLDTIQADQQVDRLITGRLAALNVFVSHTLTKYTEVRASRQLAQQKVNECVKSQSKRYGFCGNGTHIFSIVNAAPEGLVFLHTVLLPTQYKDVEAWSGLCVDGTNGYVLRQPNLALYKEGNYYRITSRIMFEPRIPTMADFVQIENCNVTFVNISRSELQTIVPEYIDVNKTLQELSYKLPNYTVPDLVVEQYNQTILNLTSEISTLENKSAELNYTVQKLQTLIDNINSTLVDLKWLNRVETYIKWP
# protocol.text: SPR
Definition: the class of an entry is the range in bin A = under 0.0004 s⁻¹, bin B = from 0.0004 s⁻¹ up to 0.002 s⁻¹, bin C = 0.002 s⁻¹ and over that contains its koff.

binder	qualitative.label
Fab A01 (Fab, V domains shown) VH: EVQLVESGGGLVQPGGSLRLSCAASGFNISSSYIHWVRQAPGKGLEWVASIYSYYSSTSYADSVKGRFTISADTSKNTAYLQMNSLRAEDTAVYYCARGGYAFYGYGSPHSWYALDYWGQGTLVTVSS VL: DIQMTQSPSSLSASVGDRVTITCRASQSVSSAVAWYQQKPGKAPKLLIYSASSLYSGVPSRFSGSRSGTDFTLTISSLQPEDFATYYCQQWWPGSWGPITFGQGTKVEIK	bin B
Fab D04 (Fab, V domains shown) VH: EVQLVESGGGLVQPGGSLRLSCAASGFNLSSYYIHWVRQAPGKGLEWVASISPYSSSTYYADSVKGRFTISADTSKNTAYLQMNSLRAEDTAVYYCARWYSPSYGWYWPYASGAGGLDYWGQGTLVTVSS VL: DIQMTQSPSSLSASVGDRVTITCRASQSVSSAVAWYQQKPGKAPKLLIYSASSLYSGVPSRFSGSRSGTDFTLTISSLQPEDFATYYCQQSSPHYLITFGQGTKVEIK	bin B
Fab A11 (Fab, V domains shown) VH: EVQLVESGGGLVQPGGSLRLSCAASGFNIYSSYIHWVRQAPGKGLEWVASISSSYGYTYYADSVKGRFTISADTSKNTAYLQMNSLRAEDTAVYYCARGHGWAYVWSSYYPAGAFALDYWGQGTLVTVSS VL: DIQMTQSPSSLSASVGDRVTITCRASQSVSSAVAWYQQKPGKAPKLLIYSASSLYSGVPSRFSGSRSGTDFTLTISSLQPEDFATYYCQQSYALITFGQGTKVEIK	bin C
Fab B09 (Fab, V domains shown) VH: EVQLVESGGGLVQPGGSLRLSCAASGFNLSYSSIHWVRQAPGKGLEWVAYIYPYYGSTYYADSVKGRFTISADTSKNTAYLQMNSLRAEDTAVYYCARSWSPSSSYPGYGGLDYWGQGTLVTVSS VL: DIQMTQSPSSLSASVGDRVTITCRASQSVSSAVAWYQQKPGKAPKLLIYSASSLYSGVPSRFSGSRSGTDFTLTISSLQPEDFATYYCQQSWSYYGSLFTFGQGTKVEIK	bin A
Fab C04 (Fab, V domains shown) VH: EVQLVESGGGLVQPGGSLRLSCAASGFNISSSYIHWVRQAPGKGLEWVASIYSSYGYTYYADSVKGRFTISADTSKNTAYLQMNSLRAEDTAVYYCARWWASVGGAGGGLDYWGQGTLVTVSS VL: DIQMTQSPSSLSASVGDRVTITCRASQSVSSAVAWYQQKPGKAPKLLIYSASSLYSGVPSRFSGSRSGTDFTLTISSLQPEDFATYYCQQGYGWLITFGQGTKVEIK	bin C
Fab D12 (Fab, V domains shown) VH: EVQLVESGGGLVQPGGSLRLSCAASGFNLSSYSMHWVRQAPGKGLEWVAYISPYYSYTSYADSVKGRFTISADTSKNTAYLQMNSLRAEDTAVYYCARVWYHSYPGWVPWGSWAFDYWGQGTLVTVSS VL: DIQMTQSPSSLSASVGDRVTITCRASQSVSSAVAWYQQKPGKAPKLLIYSASSLYSGVPSRFSGSRSGTDFTLTISSLQPEDFATYYCQQAYYSPITFGQGTKVEIK	bin B
Fab F12 (Fab, V domains shown) VH: EVQLVESGGGLVQPGGSLRLSCAASGFNLYYYYIHWVRQAPGKGLEWVASISPYSGYTSYADSVKGRFTISADTSKNTAYLQMNSLRAEDTAVYYCARAFSSYYSHSVGLDYWGQGTLVTVSS VL: DIQMTQSPSSLSASVGDRVTITCRASQSVSSAVAWYQQKPGKAPKLLIYSASSLYSGVPSRFSGSRSGTDFTLTISSLQPEDFATYYCQQHSWGGLITFGQGTKVEIK	bin B
Fab F07 (Fab, V domains shown) VH: EVQLVESGGGLVQPGGSLRLSCAASGFNISYYSIHWVRQAPGKGLEWVASIYPYYGYTSYADSVKGRFTISADTSKNTAYLQMNSLRAEDTAVYYCARSSGYYHYPYSHSGLDYWGQGTLVTVSS VL: DIQMTQSPSSLSASVGDRVTITCRASQSVSSAVAWYQQKPGKAPKLLIYSASSLYSGVPSRFSGSRSGTDFTLTISSLQPEDFATYYCQQSYYWGGPITFGQGTKVEIK	bin A
Fab A10 (Fab, V domains shown) VH: EVQLVESGGGLVQPGGSLRLSCAASGFNISSYYMHWVRQAPGKGLEWVAYISPYSGYTYYADSVKGRFTISADTSKNTAYLQMNSLRAEDTAVYYCARAHYPYHGSYWGLDYWGQGTLVTVSS VL: DIQMTQSPSSLSASVGDRVTITCRASQSVSSAVAWYQQKPGKAPKLLIYSASSLYSGVPSRFSGSRSGTDFTLTISSLQPEDFATYYCQQAGYVPITFGQGTKVEIK	bin A
Fab B10 (Fab, V domains shown) VH: EVQLVESGGGLVQPGGSLRLSCAASGFNLSSSSMHWVRQAPGKGLEWVAYIYPSYSSTYYADSVKGRFTISADTSKNTAYLQMNSLRAEDTAVYYCARASGHFWAYGFDYWGQGTLVTVSS VL: DIQMTQSPSSLSASVGDRVTITCRASQSVSSAVAWYQQKPGKAPKLLIYSASSLYSGVPSRFSGSRSGTDFTLTISSLQPEDFATYYCQQYSYSGPFTFGQGTKVEIK	bin B
